Provenance of the data: ChEMBL document CHEMBL1961873

- MEASURED ON: Phosphatidylinositol 4,5-bisphosphate 3-kinase catalytic subunit delta isoform (Homo sapiens)
- EXPERIMENTAL CONDITIONS: at 1 µM;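 further: reported values are mean percent inhibition of PI3K-delta activity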
Could you please report measured inhibition for the items listed next?
Quick reminder: number only, in %, skip the unit.

What does the data say about its inhibition? Entry: CCn1c(-c2nonc2N)nc2cnc(Oc3cccc(NC(=O)c4ccc(OCCN5CCOCC5)cc4)c3)cc21 3.06

I have this compound here, CN(C)c1cc2c(Nc3ccc4nc(Cc5ccccc5)[nH]c4c3)ncnc2cn1 , and I need its recorded inhibition. 8.91

What does the record list as inhibition for CN1CCC(C(=O)Nc2n[nH]c3nnc(-c4ccccc4)cc23)CC1 ? 1.12

Need inhibition, item NS(=O)(=O)c1cccc(-c2ccc3c(NC(=O)C4CC4)n[nH]c3c2)c1 8.71

So what does the record say about inhibition for N#Cc1c(NC(=O)c2cccc3ccccc23)sc2c1CCCC2 ? 4.96

Which inhibition value belongs to COc1cc2ncn(-c3cc(OCc4ccccc4Cl)c(C(N)=O)s3)c2cc1OC ? 18.4

Returns the measured inhibition for the input compound. Input: Cc1ccc(C(=O)NC2CCCCC2)cc1-c1ccc(C(=O)NCC2CC2)cc1 1.33

What does the record list as inhibition for Cn1cc(C=C2C(=O)Nc3cccnc32)c2ccccc21 ? 3.54

Given the entry Fc1cccc(COc2ccc(Nc3ncnc4cc(-c5ccc[nH]5)sc34)cc2Cl)c1 , report its measured inhibition. 9.44

Any idea what its inhibition is? The compound is COc1ccc(-c2coc3ncnc(N)c23)cc1 11.6
